molecular target: human NaV 1.7 (Homo sapiens, UniProt Q15858); experiment: E-VIPR optical membrane potential assay with electrical stimulation; details: sodium channel inhibition; read-out: Binned Activity Data (IC50)
Sequence (Q15858 whole entry): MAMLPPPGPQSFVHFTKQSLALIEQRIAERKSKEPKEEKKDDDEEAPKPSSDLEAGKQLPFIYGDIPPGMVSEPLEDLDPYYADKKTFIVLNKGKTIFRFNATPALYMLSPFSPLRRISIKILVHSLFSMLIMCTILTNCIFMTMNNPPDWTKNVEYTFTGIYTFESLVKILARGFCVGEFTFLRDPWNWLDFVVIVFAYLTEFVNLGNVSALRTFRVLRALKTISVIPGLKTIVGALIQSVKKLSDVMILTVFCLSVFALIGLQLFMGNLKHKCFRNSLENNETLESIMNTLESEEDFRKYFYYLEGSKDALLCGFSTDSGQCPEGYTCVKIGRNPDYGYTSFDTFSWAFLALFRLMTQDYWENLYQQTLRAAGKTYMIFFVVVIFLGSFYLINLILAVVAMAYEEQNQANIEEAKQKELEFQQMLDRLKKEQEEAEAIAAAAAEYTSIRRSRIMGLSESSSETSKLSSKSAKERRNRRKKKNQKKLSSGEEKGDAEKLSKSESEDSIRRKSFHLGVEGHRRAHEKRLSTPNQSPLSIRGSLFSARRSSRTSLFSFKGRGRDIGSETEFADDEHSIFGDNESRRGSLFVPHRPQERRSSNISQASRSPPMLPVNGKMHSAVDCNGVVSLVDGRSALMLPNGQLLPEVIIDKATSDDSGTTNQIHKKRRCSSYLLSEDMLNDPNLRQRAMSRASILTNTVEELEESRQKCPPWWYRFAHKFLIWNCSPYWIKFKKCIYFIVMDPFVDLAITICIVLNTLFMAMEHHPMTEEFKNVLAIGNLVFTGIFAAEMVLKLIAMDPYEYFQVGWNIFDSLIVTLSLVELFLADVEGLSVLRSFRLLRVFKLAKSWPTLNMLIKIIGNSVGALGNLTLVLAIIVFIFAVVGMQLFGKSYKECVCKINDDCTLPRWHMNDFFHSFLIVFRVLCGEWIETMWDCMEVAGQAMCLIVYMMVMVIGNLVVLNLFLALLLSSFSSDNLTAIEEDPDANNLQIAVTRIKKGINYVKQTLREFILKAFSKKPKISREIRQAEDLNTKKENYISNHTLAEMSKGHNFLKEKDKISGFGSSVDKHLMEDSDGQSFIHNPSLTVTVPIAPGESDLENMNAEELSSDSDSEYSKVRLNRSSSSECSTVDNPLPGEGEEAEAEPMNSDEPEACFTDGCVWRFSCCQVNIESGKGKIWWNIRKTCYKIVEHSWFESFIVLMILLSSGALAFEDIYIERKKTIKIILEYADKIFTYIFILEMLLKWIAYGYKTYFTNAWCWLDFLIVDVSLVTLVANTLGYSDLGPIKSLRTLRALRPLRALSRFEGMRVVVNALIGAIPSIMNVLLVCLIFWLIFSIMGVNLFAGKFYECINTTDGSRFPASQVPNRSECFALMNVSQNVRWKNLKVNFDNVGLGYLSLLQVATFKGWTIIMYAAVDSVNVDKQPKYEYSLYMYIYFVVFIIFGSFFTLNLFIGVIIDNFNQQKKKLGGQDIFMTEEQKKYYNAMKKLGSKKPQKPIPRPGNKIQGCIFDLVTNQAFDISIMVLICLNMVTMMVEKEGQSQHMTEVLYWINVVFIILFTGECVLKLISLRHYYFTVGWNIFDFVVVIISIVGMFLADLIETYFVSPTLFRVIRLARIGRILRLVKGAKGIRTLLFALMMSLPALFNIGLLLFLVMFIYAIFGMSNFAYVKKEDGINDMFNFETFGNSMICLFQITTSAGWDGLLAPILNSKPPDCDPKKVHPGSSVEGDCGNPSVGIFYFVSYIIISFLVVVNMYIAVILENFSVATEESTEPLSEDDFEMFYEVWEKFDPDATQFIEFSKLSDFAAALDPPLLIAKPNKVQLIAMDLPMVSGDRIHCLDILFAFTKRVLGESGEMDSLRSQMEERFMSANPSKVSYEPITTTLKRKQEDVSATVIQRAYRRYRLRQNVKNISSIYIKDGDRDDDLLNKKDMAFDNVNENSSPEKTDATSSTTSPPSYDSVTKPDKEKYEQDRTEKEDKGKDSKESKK
pIC50: −log10 of the molar value.
What pIC50 was measured for each of the following?

CHEM SMILES: CC(C)Oc1ccc(C(=O)N2CCC3(CC2)Oc2ccccc2-c2c3cnn2C)c2ncccc12
EXPERIMENTAL TARGET: human NaV 1.7 (Homo sapiens, UniProt Q15858)
pIC50: ≥ 5.70

I need pIC50 for every entry listed below, if you could help.
1. Cc1cc(C(=O)N2CCC3(CC2)Oc2ccccc2-c2[nH]ncc23)ccc1OC(C)C
2. COc1ccc(C(=O)N2CCC3(CC2)Oc2ccccc2-n2c(C(F)(F)F)ccc23)nc1C
3. COc1cc(OC)cc(C(=O)N2CCC3(CC2)Oc2cc(Cl)ccc2-n2cccc23)c1
4. COc1cccc(C(=O)N2CCC3(CC2)Oc2cc(Cl)ccc2-n2cccc23)c1
5. Cn1cc2c(n1)-c1ccccc1OC21CCN(C(=O)c2ccc3nc(Cl)sc3c2)CC1
6. N#Cc1ccc2n1-c1ccccc1OC21CCN(C(=O)c2ccc(OC3CNC3)cc2)CC1

["≥ 5.70", "≥ 5.70", "≥ 5.70", "≥ 5.70", "5.30 to 5.70", "5.30 to 5.70"]

* * *

molecular target: human NaV 1.7 (Homo sapiens, UniProt Q15858); experiment: E-VIPR optical membrane potential assay with electrical stimulation; details: sodium channel inhibition; read-out: Binned Activity Data (IC50)
pIC50: −log10 of the molar value.
What pIC50 was measured for each of the following?

CHEM SMILES: CC(C)(C)[S@@+]([O-])c1ccc(C(=O)N2CCC3(CC2)Oc2ccccc2-n2c(C(F)(F)F)ccc23)cc1
EXPERIMENTAL TARGET: human NaV 1.7 (Homo sapiens, UniProt Q15858)
ATTRIBUTE MEASURED: pIC50
RECORDED VALUE: 5.30 to 5.70
//
CHEM SMILES: CC(C)(O)c1ccc(C(=O)N2CCC3(CC2)Oc2ccccc2-n2c(C(F)(F)F)ccc23)cc1F
EXPERIMENTAL TARGET: human NaV 1.7 (Homo sapiens, UniProt Q15858)
ATTRIBUTE MEASURED: pIC50
RECORDED VALUE: ≥ 5.70
//
CHEM SMILES: Cn1ncc2c1-c1ccccc1OC21CCN(C(=O)c2ccc3nc(N)sc3c2)CC1
EXPERIMENTAL TARGET: human NaV 1.7 (Homo sapiens, UniProt Q15858)
ATTRIBUTE MEASURED: pIC50
RECORDED VALUE: ≥ 5.70
//
CHEM SMILES: O=C(c1ccc2nc(Cl)sc2c1)N1CCC2(CC1)Oc1ccccc1-n1c(C(F)(F)F)ccc12
EXPERIMENTAL TARGET: human NaV 1.7 (Homo sapiens, UniProt Q15858)
ATTRIBUTE MEASURED: pIC50
RECORDED VALUE: 5.30 to 5.70

Now consider a different compound.
Endpoint output: pIC50 of COC[C@@H](C)Oc1ccc(C(=O)N2CCC3(CC2)Oc2ccccc2-n2cccc23)cc1C(F)(F)F . Value?
≥ 5.70
